Quick reference for Dmax among some compounds
Target: BRAF G469A (Homo sapiens, UniProt P15056, G469A)
Construct: Horizon Discovery (HCT-116 BRAF−/− cells); host or cells: HCT-116 BRAF−/− cells, clone 34, lentiviral transduction
Sequence (P15056 whole entry G469A): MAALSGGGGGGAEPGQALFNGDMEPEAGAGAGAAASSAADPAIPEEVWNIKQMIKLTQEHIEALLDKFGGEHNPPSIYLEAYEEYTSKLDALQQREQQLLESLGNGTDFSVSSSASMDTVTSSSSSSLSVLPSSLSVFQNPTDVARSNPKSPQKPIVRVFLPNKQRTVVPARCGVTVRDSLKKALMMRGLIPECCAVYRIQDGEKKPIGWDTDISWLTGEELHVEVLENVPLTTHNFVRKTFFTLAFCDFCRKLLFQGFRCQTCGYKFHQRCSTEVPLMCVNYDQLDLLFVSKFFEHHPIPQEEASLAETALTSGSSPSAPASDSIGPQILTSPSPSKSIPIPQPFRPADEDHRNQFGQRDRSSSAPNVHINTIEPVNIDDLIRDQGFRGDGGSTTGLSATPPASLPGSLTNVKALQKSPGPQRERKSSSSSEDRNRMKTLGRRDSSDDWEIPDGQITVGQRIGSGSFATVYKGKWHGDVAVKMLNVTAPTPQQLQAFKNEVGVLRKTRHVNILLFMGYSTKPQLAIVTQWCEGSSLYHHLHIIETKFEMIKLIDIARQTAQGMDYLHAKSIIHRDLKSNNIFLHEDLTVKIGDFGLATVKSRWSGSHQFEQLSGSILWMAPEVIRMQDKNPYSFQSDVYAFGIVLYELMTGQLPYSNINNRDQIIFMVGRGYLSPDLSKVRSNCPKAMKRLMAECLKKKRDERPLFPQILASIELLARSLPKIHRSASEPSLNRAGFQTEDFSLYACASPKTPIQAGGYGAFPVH
Assay: BRAF HiBiT degradation assay, C-terminal HiBiT-tagged BRAF G469A overexpressed in HCT-116 BRAF−/− cells (clone 34), Nano-Glo HiBiT Lytic assay
Format: cell-based
Details: BRAF G469A (Class 2), HCT-116 BRAF−/− cells; observed Dmax relative to DMSO control

// solved cases for Dmax follow
O=C1CCN(c2ccc(N3CCC(CN4CCN(c5ccc(-n6cc(-c7cc(Cl)cc(NS(=O)(=O)N8CCCC8)c7F)c(-c7ccncc7)n6)cc5)CC4)CC3)cc2)C(=O)N1
30 to 70%
C[C@@H]1CN(c2ccc(-n3cc(-c4cc(Cl)cc(NS(=O)(=O)N5CCCC5)c4F)c(-c4ccncc4)n3)cc2)CCN1CC1CCN(c2ccc(C3CCC(=O)NC3=O)cn2)CC1 (mixture of isomers)
> 70%

Can you look up the measured Dmax of `O=C1CC[C@H](c2ccc(N3CCC(CN4CCN(c5ccc(-n6cc(-c7cc(F)cc(NS(=O)(=O)N8CC[C@@H](F)C8)c7F)c(-c7ccncc7)n6)nc5)CC4)CC3)cc2)C(=O)N1` for me?
30 to 70%

----------
Target: BRAF D594G (Homo sapiens, UniProt P15056, D594G)
Construct: Horizon Discovery (HCT-116 BRAF−/− cells); host or cells: HCT-116 BRAF−/− cells, clone 63, lentiviral transduction
Sequence (P15056 whole entry D594G): as the sequence (P15056 whole entry G469A) above, with A469G, D594G counted along it
Experiment: BRAF HiBiT degradation assay, C-terminal HiBiT-tagged BRAF D594G overexpressed in HCT-116 BRAF−/− cells (clone 63), Nano-Glo HiBiT Lytic assay
Format: cell-based
Conditions: BRAF D594G; DC50 at 50%: fitted conc. at Y=50
quantity-measured: DC50

CCCS(=O)(=O)Nc1cccc(-c2nc(C(C)(C)C)sc2-c2ccnc(Nc3cccc(OC4CCN(C[C@H]5CC[C@H](Oc6ccc(C7CCC(=O)NC7=O)cc6)CC5)CC4)c3)n2)c1F (mixture of isomers) [Compound 72]
> 500 nM

Field request: DC50 | item: CCCS(=O)(=O)Nc1cccc(-c2nc(C3CCC4(CC3)CCN(C(=O)CCCCCc3ccc5c(c3)C(=O)N(C3CCC(=O)NC3=O)C5)CC4)sc2-c2ccnc(N)n2)c1F (racemic) [Compound 235]
> 500 nM

Please report the recorded DC50 for CCCS(=O)(=O)Nc1cccc(-c2nc(C(C)(C)C)sc2-c2ccnc(NC3CC4(C3)CN(C(=O)C3(F)CCN(CC5CCN(c6ccc(C7CCC(=O)NC7=O)cc6)CC5)CC3)C4)n2)c1F (racemic) [Compound 141] .
> 500 nM

What value of DC50 has been recorded for this entry: CCCS(=O)(=O)Nc1cccc(-c2nc(C(C)(C)C)sc2-c2ccnc(Nc3cnn(C4CCN(CC5CCN(c6ccc(C(=O)N[C@@H]7CCC(=O)NC7=O)nc6)CC5)CC4)c3)n2)c1F [Compound 67]
> 500 nM

Suppose we examine the compound CCCS(=O)(=O)Nc1cccc(-c2nc(C(C)(C)C)sc2-c2ccnc(Nc3cccc(OC4CCN(C(=O)[C@@H]5CCN(c6ccc(C7CCC(=O)NC7=O)cn6)C5)CC4)c3)n2)c1F (mixture of isomers) [Compound 94] ; what DC50 value has been reported?
< 10 nM

----------
Target: BRAF V600E (Homo sapiens, UniProt P15056, V600E)
Construct: endogenous C-terminal HiBiT fusion tag on BRAF V600E allele; endogenous in cells; host or cells: A375 clone 1F10 (CRISPR-Cas9 knock-in of the HiBiT tag; parental A375 from ATCC)
Sequence (P15056 whole entry V600E, the tested form may be a part): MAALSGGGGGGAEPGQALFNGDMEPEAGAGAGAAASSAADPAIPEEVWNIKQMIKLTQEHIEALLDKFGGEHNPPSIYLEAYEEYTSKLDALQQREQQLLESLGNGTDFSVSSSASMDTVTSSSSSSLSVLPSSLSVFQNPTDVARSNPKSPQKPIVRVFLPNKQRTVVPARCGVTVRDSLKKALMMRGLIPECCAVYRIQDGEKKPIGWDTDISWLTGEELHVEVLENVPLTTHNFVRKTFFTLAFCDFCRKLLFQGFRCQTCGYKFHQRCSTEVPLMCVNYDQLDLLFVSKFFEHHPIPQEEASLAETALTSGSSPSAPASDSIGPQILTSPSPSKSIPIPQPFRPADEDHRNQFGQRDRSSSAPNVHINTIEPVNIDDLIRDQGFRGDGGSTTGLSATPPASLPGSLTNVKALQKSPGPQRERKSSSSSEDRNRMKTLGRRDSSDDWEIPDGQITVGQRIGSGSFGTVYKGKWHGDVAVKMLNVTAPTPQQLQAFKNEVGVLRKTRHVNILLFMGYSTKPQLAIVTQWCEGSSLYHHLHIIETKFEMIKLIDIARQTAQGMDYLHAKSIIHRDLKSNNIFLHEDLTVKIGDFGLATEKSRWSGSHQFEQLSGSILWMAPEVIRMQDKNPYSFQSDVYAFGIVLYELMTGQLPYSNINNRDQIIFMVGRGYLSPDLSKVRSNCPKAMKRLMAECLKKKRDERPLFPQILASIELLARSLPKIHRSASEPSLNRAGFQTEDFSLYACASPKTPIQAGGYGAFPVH
Assay: BRAF HiBiT degradation assay, C-terminal HiBiT-tagged BRAF V600E A375 cells (clone 1F10), Nano-Glo HiBiT Lytic assay
Type: cell-based
Conditions: A375 (BRAF V600E, Class 1); DC50 at 50% degradation
quantity-measured: DC50

Tell me reported DC50 for O=C1CCC(c2ccc(N3CCC(CN4CCN(c5ccc(-n6cc(-c7cc(Cl)cc(NS(=O)(=O)N8CCCC8)c7F)c(-c7ccncc7)n6)cc5)CC4)CC3)c(F)c2F)C(=O)N1 (racemic) , tested with BRAF V600E (Homo sapiens, UniProt P15056, V600E).
10 to 50 nM

----------
Molecular target: BRAF G469A (Homo sapiens, UniProt P15056, G469A)
Construct: Horizon Discovery (HCT-116 BRAF−/− cells); host or cells: HCT-116 BRAF−/− cells, clone 34, lentiviral transduction
Experiment: BRAF HiBiT degradation assay, C-terminal HiBiT-tagged BRAF G469A overexpressed in HCT-116 BRAF−/− cells (clone 34), Nano-Glo HiBiT Lytic assay
Type: cell-based
Settings: BRAF G469A (Class 2), HCT-116 BRAF−/− cells; observed Dmax relative to DMSO control
Listed compounds paired with reported Dmax

Sample records with Dmax:
O=C1CCC(c2ccc(N3CCC(CN4CCN(c5ccc(-n6cc(-c7cc(Cl)cc(NS(=O)(=O)N8CCCC8)c7F)c(-c7ccncc7)n6)cc5)CC4)CC3)c(F)c2F)C(=O)N1 (racemic)
30 to 70%
O=C1CCC(c2ccc(N3CCC(CN4CCN(c5ccc(-n6cc(-c7cc(Cl)cc(NS(=O)(=O)N8CC(F)C8)c7F)c(-c7ccncc7)n6)cc5)CC4)CC3)nc2)C(=O)N1 (racemic)
> 70%
CCN(C)S(=O)(=O)Nc1cc(Cl)cc(-c2cn(-c3ccc(N4CCN(CC5CCN(c6ccc(N7CCC(=O)NC7=O)cc6)CC5)CC4)cn3)nc2-c2ccncc2)c1F
30 to 70%

Dmax for `O=C1CC[C@H](c2ccc(N3CCC(CN4CCN(c5ccc(-n6cc(-c7cc(Cl)cc(NS(=O)(=O)C8CCCC8)c7F)c(-c7ccncc7)n6)cc5)CC4)CC3)nc2)C(=O)N1` ?
> 70%

Which Dmax value is on record for CCC(C)S(=O)(=O)Nc1cc(Cl)cc(-c2cn(-c3ccc(N4CCN(CC5CCN(c6ccc([C@H]7CCC(=O)NC7=O)cn6)CC5)CC4)cc3)nc2-c2ccncc2)c1F (mixture of isomers) ?
> 70%

Recorded Dmax of `O=C1CC[C@H](c2ccc(N3CCC(CN4CCN(c5ccc(-n6cc(-c7cc(F)cc(NS(=O)(=O)N8CCCC8)c7F)c(-c7ccncc7)n6)cc5)CC4)CC3)cc2)C(=O)N1` , please.
30 to 70%

----------
Target: BRAF G469A (Homo sapiens, UniProt P15056, G469A)
Construct: Horizon Discovery (HCT-116 BRAF−/− cells); host or cells: HCT-116 BRAF−/− cells, clone 34, lentiviral transduction
Assay: BRAF HiBiT degradation assay, C-terminal HiBiT-tagged BRAF G469A overexpressed in HCT-116 BRAF−/− cells (clone 34), Nano-Glo HiBiT Lytic assay
Type: cell-based
Conditions: Class 2; BRAF G469A; DC50 at 50%: fitted conc. at Y=50
quantity-measured: DC50

Known DC50 results, listed for orientation:
CCCS(=O)(=O)Nc1cccc(-c2nc(C(C)(C)C)sc2-c2ccnc(NC3CC4(C3)CN(C(=O)C3(F)CCN(CC5CCN(c6ccc(C7CCC(=O)NC7=O)cc6)CC5)CC3)C4)n2)c1F (racemic)
> 0.5 µM
CCCS(=O)(=O)Nc1cccc(-c2nc(C(C)(C)C)sc2-c2ccnc(Nc3cccc(OC4CCN(C(=O)[C@H]5CC[C@H](Oc6ccc(C7CCC(=O)NC7=O)cn6)CC5)CC4)c3)n2)c1F (mixture of isomers)
> 0.5 µM
CCCS(=O)(=O)Nc1cccc(-c2nc(-c3ccc(N4CCN(CC5CCN(c6ccc(C7CCC(=O)NC7=O)cn6)CC5)CC4)cc3)sc2-c2ccnc(N)n2)c1F (racemic)
0.01 to 0.05 µM
CCCS(=O)(=O)Nc1cccc(-c2nc(C3CCN(C(=O)C4(C)CCN(C(=O)C5CCN(c6ccc(C7CCC(=O)NC7=O)cn6)CC5)CC4)CC3)sc2-c2ccnc(N)n2)c1F (racemic)
0.01 to 0.05 µM

Requested read-out: DC50. Entry: CCCS(=O)(=O)Nc1cccc(-c2nc(C(C)(C)C)sc2-c2ccnc(NC3CC4(CCN(C(=O)CN5CCC(c6ccc(NC7CCC(=O)NC7=O)cc6)CC5)CC4)C3)n2)c1F (racemic)
> 0.5 µM

----------
Target: BRAF G469A (Homo sapiens, UniProt P15056, G469A)
Construct: Horizon Discovery (HCT-116 BRAF−/− cells); host or cells: HCT-116 BRAF−/− cells, clone 34, lentiviral transduction
Experiment: BRAF HiBiT degradation assay, C-terminal HiBiT-tagged BRAF G469A overexpressed in HCT-116 BRAF−/− cells (clone 34), Nano-Glo HiBiT Lytic assay
Assay type: cell-based
Conditions: HCT-116; Class 2; BRAF G469A; percentage protein degraded at maximal compound effect relative to DMSO
Description: An A375 cell line expressing a homozygous V600E mutation was purchased from ATCC (Manassas, VA, USA). […] HiBiT signal was measured by a Nano-Glo HiBiT Lytic assay (Promega cat. no. N3050). […] Luminesce units (LU) were read on an EnVision plate reader 2105 (Perkin Elmer). Percent protein remaining and viability remaining per sample were calculated as follows: […]
quantity-measured: Dmax

Consider the reported Dmax for these compounds:
CCN(C)S(=O)(=O)Nc1cccc(-c2nc(C(C)(C)C)sc2-c2ccnc(Nc3ccc(N4CCN(C(=O)CN5CCc6cc(C7CCC(=O)NC7=O)ccc6C5)CC4)c(F)c3)n2)c1F (racemic) [Compound 28]
30 to 70%
CCN(C)S(=O)(=O)Nc1cccc(-c2nc(C(C)(C)C)sc2-c2ccnc(Nc3ccc(N4CCN(C(=O)C5(C)CCN(c6ccc(C7CCC(=O)NC7=O)cn6)CC5)CC4)cn3)n2)c1F (racemic) [Compound 42]
< 30%
CCCS(=O)(=O)Nc1cccc(-c2nc(C3CCN(C4CN(C(=O)CC5CCN(c6ccc(C7CCC(=O)NC7=O)cc6)CC5)C4)CC3)sc2-c2ccnc(N)n2)c1F (racemic) [Compound 215]
< 30%
CCCS(=O)(=O)Nc1cccc(-c2nc(C(C)(C)C)sc2-c2ccnc(Nc3ccc(C4CCN(CC5CCN(c6ccc([C@H]7CCC(=O)NC7=O)cc6)CC5)CC4)cc3)n2)c1F [Compound 89]
30 to 70%
CCCS(=O)(=O)Nc1cccc(-c2nc(C(C)(C)C)sc2-c2ccnc(Nc3ccc(N4CCN(CC5CCN(c6ccc(C7CCC(=O)NC7=O)cn6)CC5)CC4)cc3)n2)c1F (racemic) [Compound 47]
30 to 70%

Which measured Dmax value corresponds to CCCS(=O)(=O)Nc1cccc(-c2cn(-c3ccc(C4CCN(CC5CCN(c6ccc(C7CCC(=O)NC7=O)cn6)CC5)CC4)cc3)nc2-c2ccncc2)c1F (racemic) [Compound 24] ?
< 30%

What value of Dmax has been reported for the following compound? CCCS(=O)(=O)Nc1cccc(-c2cn(-c3ccc(C4CCN(CC5CCN(c6ccc([C@@H]7CCC(=O)NC7=O)cc6)CC5)CC4)cc3)nc2-c2ccncc2)c1F [Compound 15]
< 30%

Item CCCS(=O)(=O)Nc1cccc(-c2nc(C(C)(C)C)sc2-c2ccnc(Nc3cnn(C4CCN(C(=O)[C@H]5CC[C@H](Oc6ccc(C7CCC(=O)NC7=O)cn6)CC5)CC4)c3)n2)c1F (mixture of isomers) [Compound 109] has what recorded Dmax?
< 30%

Value lookup for Dmax; key = CCCS(=O)(=O)Nc1cccc(-c2nc(C3CCN(C(=O)C4CCN(CC5CCN(c6cccc7c6n(C)c(=O)n7C6CCC(=O)NC6=O)CC5)CC4)CC3)sc2-c2ccnc(N)n2)c1F (racemic) [Compound 195]
30 to 70%

Look up Dmax: CCCS(=O)(=O)Nc1cccc(-c2nc(C(C)(C)C)sc2-c2ccnc(Nc3ccc(C4CCN(C(=O)C5CN(c6ccc(C7CCC(=O)NC7=O)cn6)C5)CC4)cc3)n2)c1F (racemic) [Compound 159]
< 30%
